Ref: patent US5362744A

Tested on: total cholesterol
Assay: in vivo screen designated APCC (total cholesterol in rats on PCC diet)
Design: species or system male Sprague-Dawley rats
Conditions: Rattus norvegicus, PCC diet overnight, read-out: APCC (%ΔTC): percent change in total cholesterol between control and drug-treated animals
Method: In one in vivo screen designated APCC, male Sprague-Dawley rats (200 to 225 g) were randomly divided into treatment groups and dosed at 4 PM with either vehicle (CMC/Tween) or suspensions of compounds in vehicle. The normal chow diet was then replaced with the PCC diet (5.5% peanut oil, 1.5% cholesterol, and 0.5% cholic acid). […] Statistical differences between mean cholesterol values for the same vehicle were determined using analysis of variance followed by Fisher's least significant test. […]
property-label: change in vivo at 30 mg/kg (%)
Your answer is read as %, so omit the unit and give the number.

Below are worked cases with known answers.
{"columns": ["compound", "assay-value"],
 "data": [
  ["CCN(CC)CCCCCCCCn1nnc(N(C(=O)Nc2c(C(C)C)cccc2C(C)C)c2ccccc2)n1", -30],
  ["CCCCCCCCCCCCCCn1nnc(N(C(=O)Nc2c(OC)cc(OC)cc2OC)c2ccccc2)n1", -22],
  ["CCCCCCCCCCCCn1nnc(N(C(=O)Nc2c(C(C)C)cccc2C(C)C)C2CCCCC2)n1", -10]
]}

Output measured change in vivo at 30 mg/kg for this item: CCCCCCCCCCCCn1nnc(N(C(=O)Nc2ccc(F)cc2F)C2CCCCC2)n1
-33

Please report the measured change in vivo at 30 mg/kg for CCCCCCCCCCCCn1nnc(N(C(=O)Nc2c(C(C)C)cccc2C(C)C)c2ccccc2)n1
-52

Specify reported change in vivo at 30 mg/kg for the compound shown: CCCCCCCCCCCCn1nnc(N(C(=O)Nc2c(OC)cc(OC)cc2OC)c2ccccc2)n1
-74
